Entry source: a melting point compilation (Tetko et al.; mined from patent text by program, amines drawn as free bases though some values may be those of a salt)

Each entry below carries its recorded melting point.

Worked set:
# Molecule, melting point
data = [
    ("CCCC1=NN(c2cccc(S(=O)(=O)O)c2)C(=O)C1=CNc1ccccc1CC", "259 °C"),
    ("COC(=O)[C@H](c1ccccc1Cl)N1CCc2sc(OC(C)=O)cc2C1", "73 to 75 °C"),
    ("CCOC(=O)Cc1ccc2c(c1)sc1ccc(C)cc12", "45 to 48 °C"),
    ("CCc1cnc(N2CCC(c3nc4cc(-c5ccc(-n6cnnn6)cc5F)ccc4o3)CC2)nc1", "188 to 192 °C"),
    ("O=S(=O)(Cc1n[nH]c(-c2ccco2)n1)c1ccccc1", "185 to 186 °C"),
    ("N#CCCNC(=O)C1=C(C(=O)Nc2ccc(Cl)cc2F)CCCC1", "160 to 161 °C"),
    ("Cc1nc2c3c(c(C(=O)N(C)CC(C)O)cc2n1C)CCC1(Cc2ccccc2C1)N3 (stereo not drawn)", "258 to 259 °C"),
]

Value of melting point reported for the molecule `COC=NS(=O)(=O)c1cc(C(C)C)c(C#N)cc1C(C)C` is 130 to 132 °C
